# Tested on: SR leukemia
# PROTOCOL TEXT: NCI tumour cell line growth inhibition, 48 h
Record form. Attribute: TGI. Fill in for each entry.

Recorded TGI, per entry:
Cc1ccc(NC(=O)CCC(=O)C2Cc3ccccc3C2=O)cc1C (stereo unspecified) : > 100 µM
C[Si](C)(C)/C=C/CN1C(=O)CCC1=O : > 100 µM
COc1ccc2nc3ccccc3c(NCc3ccccc3)c2c1 : 4.51 µM
Cc1ccc(C2C3Cc4ccccc4C3=NN2c2ccc(S(=O)(=O)NC(=O)Nc3ccccc3)cc2)cc1 (stereo unspecified) : 16.1 µM
CCOC(=O)c1nc2cc(F)cc(F)c2[nH]c1=O : > 100 µM

Now look at this entry.
Look at this compound and give its reported TGI. O=C(O)CCSC(=O)Nc1ccccc1
> 100 µM
